- Assay target: ERα protein (HiBiT-tagged) in ESR1_HiBiT KI MCF7 cells (Homo sapiens)
- Sequence (P03372 whole entry): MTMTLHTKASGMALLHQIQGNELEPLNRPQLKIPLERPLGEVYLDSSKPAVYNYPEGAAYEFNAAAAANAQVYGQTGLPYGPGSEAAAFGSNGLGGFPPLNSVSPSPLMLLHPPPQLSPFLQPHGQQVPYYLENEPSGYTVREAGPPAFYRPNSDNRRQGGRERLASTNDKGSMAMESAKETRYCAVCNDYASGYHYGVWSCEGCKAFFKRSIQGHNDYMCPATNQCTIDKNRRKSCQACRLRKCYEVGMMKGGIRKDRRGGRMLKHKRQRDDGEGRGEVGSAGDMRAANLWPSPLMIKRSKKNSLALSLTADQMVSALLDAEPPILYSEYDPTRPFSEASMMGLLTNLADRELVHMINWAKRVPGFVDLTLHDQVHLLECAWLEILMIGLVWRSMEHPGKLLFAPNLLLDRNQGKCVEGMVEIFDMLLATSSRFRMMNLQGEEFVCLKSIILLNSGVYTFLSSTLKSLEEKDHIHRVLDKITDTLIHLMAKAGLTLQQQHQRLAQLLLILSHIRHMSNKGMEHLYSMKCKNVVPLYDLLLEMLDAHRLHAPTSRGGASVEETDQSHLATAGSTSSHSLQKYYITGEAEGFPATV
- Assay: Nano Glo HiBiT Lytic Degradation Assay
- Assay type: cell-based
- Condition set: 6 hours with compound, 14-point dose response 1:3, bell-shape curve fit, half-maximal effect of first Hill model, read-out: MCF7 ESR1 HiBiT - (DC50)
Rule for this label: YES means DC50 is less than 1 nM; NO means DC50 is at least 1 nM.

1) O=C1CC[C@H](N2Cc3cc(N4CCN(CC5CCN(c6ccc([C@@H]7c8ccc(O)cc8CC[C@@H]7c7ccccc7)c(F)c6)CC5)CC4)ccc3C2=O)C(=O)N1; YES
2) O=C1CC[C@H](N2Cc3cc(N4CCN(CC5CCN(c6ccc([C@H]7c8ccc(O)cc8C(F)(F)C[C@H]7c7ccc(F)cc7F)cc6)CC5)CC4)ccc3C2=O)C(=O)N1; NO
3) O=C1CC[C@H](N2Cc3cc(N4CCN(CC5CCN(c6ccc([C@@H]7c8ccc(O)cc8CC[C@@H]7c7ccc8c(c7)CCC8)cc6)CC5)CC4)ccc3C2=O)C(=O)N1 (single isomer, unassigned); NO
4) O=C1CCC(c2ccc(N3CCC4(CCN(CC5CCN(c6ccc([C@@H]7c8ccc(O)cc8CC[C@@H]7c7ccccc7)cc6)CC5)C4)CC3)cc2)C(=O)N1 (single isomer, unassigned); YES

Value source: patent US20250388565A1
